Reference source: patent US20220396565A1

test system: Acinetobacter baumannii ATCC17978; test: Antimicrobial susceptibility testing: 90% growth inhibitory concentration (IC90) determination, Iso-Sensitest broth; type: cell-based; details: 90% growth inhibitory concentration, Acinetobacter baumannii ATCC17978, Iso-Sensitest broth; read-out: ATCC 17978 IC90
Counter-ions that a name gives are not always drawn.
Measured Endpoint: IC90 (nM)
Give the value in nM but do not write nM after it.

COc1ccc(-c2cnc(C(=O)Nc3ccc(C(=O)N4CCN(C(=O)[C@@H]5C[C@@H](O)CN5)CC4)c(Cl)c3)n2C)c(F)c1F [Example 106, trifluoroacetate]
100
Cn1c(-c2ccc(OCC#N)c(F)c2F)cnc1C(=O)Nc1ccc(C(=O)N2CCN(C(=O)[C@@H]3C[C@@H](O)CN3)CC2)c(Cl)c1 [Example 202, trifluoroacetate]
90
COc1ccc(-c2cnc(C(=O)Nc3ccc(C(=O)N4CCN(CCN(C)C)CC4)c(Cl)c3)n2C)cc1F [Example 274, formate]
290
Cn1c(-c2ccc(OCC#N)c(F)c2F)cnc1C(=O)Nc1ccc(C(=O)N2CCN(C(=O)[C@@H]3CCCN3)CC2)c(Cl)c1 [Example 198, trifluoroacetate]
30

[Q] // query IC90 value for entry Cn1c(-c2ccc(OCC#N)c(F)c2F)cnc1C(=O)Nc1ccc(C(=O)N2CCC(C(=O)N3CCOC(CN)C3)CC2)c(Cl)c1 (centres unmarked) [Example 73, 2,2,2-trifluoroacetate]
[A] 60

###

test system: Acinetobacter baumannii ATCC17961; assay: Antimicrobial susceptibility testing: 90% growth inhibitory concentration (IC90) determination, Iso-Sensitest broth; assay type: cell-based; details: Acinetobacter baumannii, ATCC17961, 90% growth inhibitory concentration, Acinetobacter baumannii ATCC17961, Iso-Sensitest broth; read-out: ATCC 17961 IC90
Where a name gives a salt, the structure may show the parent alone.
Criterion: IC90 strictly under 40 nM. Met: TRUE. Not met: FALSE.

Cn1c(-c2ccc(OCF)c(F)c2F)cnc1C(=O)Nc1ccc(C(=O)N2CCN(C(=O)C3CCN(CC(N)=O)CC3)CC2)c(Cl)c1
FALSE
COc1ccc(-c2cnc(C(=O)Nc3ccc(C(=O)N4CCN(C(=O)C5CNC5)CC4)c(Cl)c3)n2C)c(F)c1F [Example 165, formate]
FALSE
COc1ccc(-c2cnc(C(=O)Nc3ccc(C(=O)N4CCC(C(=O)NCc5ccncc5)CC4)c(Cl)c3)n2C)c(F)c1F
FALSE

[Q] Criterion: IC90 strictly below 40 nM. Is it met by Cn1c(-c2ccc(OC(F)F)c(F)c2Cl)cnc1C(=O)Nc1ccc(C(=O)N2CCN(C(=O)C3(O)CCNCC3)CC2)c(Cl)c1 [Example 169, formate] ?
[A] TRUE

[Q] Criterion: IC90 strictly below 40 nM. Is it met by COc1ccc(-c2cnc(C(=O)Nc3ccc(C(=O)N4CCC(S(=O)(=O)N5CCNCC5)CC4)c(Cl)c3)n2C)c(F)c1F [Example 21, formate] ?
[A] FALSE

[Q] Criterion: IC90 strictly below 40 nM. Is it met by COc1ccc(-c2cnc(C(=O)Nc3ccc(C(=O)N4CCN(C(=O)[C@H]5[C@@H]6CNC[C@@H]65)CC4)c(Cl)c3)n2C)c(F)c1F [Example 184, trifluoroacetate] ?
[A] TRUE

[Q] Criterion: IC90 strictly below 40 nM. Is it met by COc1ccc(-c2cnc(C(=O)Nc3ccc(C(=O)N4CCC(C(=O)N[C@H]5CNC[C@@H]5O)CC4)c(Cl)c3)n2C)c(F)c1F [Example 72, formate] ?
[A] FALSE

[Q] Criterion: IC90 strictly below 40 nM. Is it met by Cn1c(-c2ccc(OCC#N)c(F)c2F)cnc1C(=O)Nc1ccc(C(=O)N2CCN(CCNC(=O)[C@H]3CCCN3)CC2)c(Cl)c1 [Example 213, trifluoroacetate] ?
[A] FALSE

[Q] Criterion: IC90 strictly below 40 nM. Is it met by Cn1c(-c2ccc(OCF)c(F)c2F)cnc1C(=O)Nc1ccc(C(=O)N2CCN(C(=O)C3[C@H]4CNC[C@@H]34)CC2)c(Cl)c1 (stereo partly shown) [Example 136, formate] ?
[A] TRUE
